The origin of these recorded values is paper PMC9518283.

- test-target: hMAO-B (Homo sapiens)
- Construct: purchased Sigma-Aldrich (St. Louis, MO, USA)
- Sequence (P27338 whole entry): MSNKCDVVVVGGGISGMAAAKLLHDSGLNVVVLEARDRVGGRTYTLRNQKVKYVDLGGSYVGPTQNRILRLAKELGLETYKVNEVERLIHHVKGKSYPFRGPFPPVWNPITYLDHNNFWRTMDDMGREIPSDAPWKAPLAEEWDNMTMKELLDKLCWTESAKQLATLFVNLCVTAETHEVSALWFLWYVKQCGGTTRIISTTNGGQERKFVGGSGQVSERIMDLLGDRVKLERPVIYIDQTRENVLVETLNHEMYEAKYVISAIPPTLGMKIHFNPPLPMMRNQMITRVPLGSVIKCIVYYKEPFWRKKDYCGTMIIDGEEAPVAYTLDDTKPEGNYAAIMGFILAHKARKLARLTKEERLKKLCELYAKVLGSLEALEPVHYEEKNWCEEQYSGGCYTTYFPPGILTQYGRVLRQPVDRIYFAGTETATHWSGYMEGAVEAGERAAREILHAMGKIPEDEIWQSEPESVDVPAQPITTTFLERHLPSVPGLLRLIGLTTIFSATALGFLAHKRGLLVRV
- test-description: biochemical
- conditions-used: residual enzyme activity, compound at 1 µM
Response field label takes MET when % of MAO-B activity (1 µM) is strictly below 80% and NOT MET in all other cases.

{"smiles-structure": "C=CCNc1c2c(nc3cc(Cl)ccc13)CCCC2.Cl", "test-target": "hMAO-B (Homo sapiens)", "classification": "MET"}
{"smiles-structure": "C=CCN(CC=C)c1c2c(nc3ccc(OC)cc13)CCCC2.Cl", "test-target": "hMAO-B (Homo sapiens)", "classification": "NOT MET"}
{"smiles-structure": "C#CCNCCCNc1c2c(nc3ccc(Oc4ccccc4)cc13)CCCC2.Cl.Cl", "test-target": "hMAO-B (Homo sapiens)", "classification": "MET"}
{"smiles-structure": "C#CCNCCCNc1c2c(nc3ccccc13)CCCC2.Cl.Cl", "test-target": "hMAO-B (Homo sapiens)", "classification": "NOT MET"}

* * *

Quick reference: IC50 of the listed items.
- test-target: human AChE (hAChE; EC 3.1.1.7) (Homo sapiens, UniProt P22303)
- Sequence (P22303 32-614): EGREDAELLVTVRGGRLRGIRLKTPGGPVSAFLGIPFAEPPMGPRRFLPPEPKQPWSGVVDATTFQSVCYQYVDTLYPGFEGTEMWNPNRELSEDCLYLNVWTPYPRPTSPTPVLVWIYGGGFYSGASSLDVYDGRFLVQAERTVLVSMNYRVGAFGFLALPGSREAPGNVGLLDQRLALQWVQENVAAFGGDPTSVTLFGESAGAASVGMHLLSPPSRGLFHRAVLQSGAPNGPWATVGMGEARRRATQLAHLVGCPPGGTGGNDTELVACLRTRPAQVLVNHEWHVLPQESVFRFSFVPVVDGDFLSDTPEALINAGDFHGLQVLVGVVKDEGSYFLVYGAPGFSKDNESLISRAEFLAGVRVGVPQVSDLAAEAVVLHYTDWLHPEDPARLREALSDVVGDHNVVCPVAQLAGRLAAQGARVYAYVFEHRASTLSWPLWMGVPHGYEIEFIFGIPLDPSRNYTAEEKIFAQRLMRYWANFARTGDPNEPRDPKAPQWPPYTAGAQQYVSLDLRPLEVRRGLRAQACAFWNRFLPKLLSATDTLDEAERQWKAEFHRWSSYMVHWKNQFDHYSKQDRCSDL
- test-description: biochemical
- conditions-used: mean of at least three experiments; read-out: IC50 hAChE ± STD

{"smiles-structure": "C=CCNc1c2c(nc3ccccc13)CCCC2.Cl", "IC50 [nM]": 303}
{"smiles-structure": "C#CCN(CC#C)CCCNc1c2c(nc3cc(Cl)ccc13)CCCC2.Cl.Cl", "IC50 [nM]": 61}
{"smiles-structure": "C#CCNc1c2c(nc3ccc(OC)cc13)CCCC2.Cl", "IC50 [nM]": 1360}
{"smiles-structure": "C=CCN(CC=C)c1c2c(nc3ccccc13)CCCC2.Cl", "IC50 [nM]": 493}
{"smiles-structure": "C=CCN(CC=C)c1c2c(nc3ccc(OC)cc13)CCCC2.Cl", "IC50 [nM]": 3690}
{"smiles-structure": "C#CCN(CC#C)CCCNc1c2c(nc3ccc(OC)cc13)CCCC2.Cl.Cl", "IC50 [nM]": 1950}
{"smiles-structure": "C#CCNCCCNc1c2c(nc3ccccc13)CCCC2.Cl.Cl", "IC50 [nM]": 95}
{"smiles-structure": "C=CCN(CC=C)c1c2c(nc3ccc(Oc4ccccc4)cc13)CCCC2.Cl", "IC50 [nM]": 9540}
{"smiles-structure": "C#CCN(CC#C)c1c2c(nc3ccc(Oc4ccccc4)cc13)CCCC2.Cl", "IC50 [nM]": 2880}
{"smiles-structure": "C=CCNc1c2c(nc3ccc(OC)cc13)CCCC2.Cl", "IC50 [nM]": 2270}
{"smiles-structure": "C=CCNc1c2c(nc3ccc(Oc4ccccc4)cc13)CCCC2.Cl", "IC50 [nM]": 1120}
{"smiles-structure": "C#CCNc1ccnc2cc(Cl)ccc12.Cl", "IC50 [nM]": 8720}
{"smiles-structure": "C#CCN(CC#C)c1c2c(nc3ccc(OC)cc13)CCCC2.Cl", "IC50 [nM]": 5120}
{"smiles-structure": "C#CCNCCCNc1c2c(nc3ccc(Oc4ccccc4)cc13)CCCC2.Cl.Cl", "IC50 [nM]": 1040}
{"smiles-structure": "C#CCN(CC#C)CCCNc1c2c(nc3ccccc13)CCCC2.Cl.Cl", "IC50 [nM]": 198}
{"smiles-structure": "C#CCNc1c2c(nc3ccccc13)CCCC2", "IC50 [nM]": 94}
{"smiles-structure": "C#CCNc1c2c(nc3ccc(Oc4ccccc4)cc13)CCCC2.Cl", "IC50 [nM]": 1470}
{"smiles-structure": "C#CCN(CC#C)c1c2c(nc3cc(Cl)ccc13)CCCC2", "IC50 [nM]": 105}
{"smiles-structure": "C=CCNc1ccnc2cc(Cl)ccc12.Cl", "IC50 [nM]": 10700}
{"smiles-structure": "C#CCN(CC#C)c1c2c(nc3ccccc13)CCCC2.Cl", "IC50 [nM]": 186}
{"smiles-structure": "C=CCNc1c2c(nc3cc(Cl)ccc13)CCCC2.Cl", "IC50 [nM]": 70}

* * *

- test-target: hMAO-A (Homo sapiens, UniProt P21397)
- Construct: purchased Sigma-Aldrich (St. Louis, MO, USA)
- Sequence (P21397 whole entry): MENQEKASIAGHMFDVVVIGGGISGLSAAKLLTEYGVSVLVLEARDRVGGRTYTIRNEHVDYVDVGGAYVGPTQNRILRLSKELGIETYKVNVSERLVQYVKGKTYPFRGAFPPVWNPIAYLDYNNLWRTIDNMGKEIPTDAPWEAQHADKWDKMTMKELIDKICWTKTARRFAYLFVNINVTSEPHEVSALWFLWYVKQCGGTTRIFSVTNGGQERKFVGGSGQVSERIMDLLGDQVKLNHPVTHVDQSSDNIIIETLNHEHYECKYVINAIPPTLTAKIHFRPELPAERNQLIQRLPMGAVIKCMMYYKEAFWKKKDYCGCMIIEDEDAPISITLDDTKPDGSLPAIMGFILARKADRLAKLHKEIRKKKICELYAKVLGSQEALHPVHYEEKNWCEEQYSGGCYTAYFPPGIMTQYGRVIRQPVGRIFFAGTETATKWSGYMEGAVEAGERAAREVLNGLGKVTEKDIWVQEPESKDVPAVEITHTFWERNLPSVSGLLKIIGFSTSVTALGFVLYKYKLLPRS
- test-description: hMAO-A inhibition, kynuramine substrate, HPLC-MS
- Format: biochemical
- conditions-used: residual enzyme activity, compound at 1 µM
Please assign a class to every record based on measured % of MAO-A activity (1 µM), with ranges low = under 60%, mid = from 60% up to 90%, high = 90% and over

{"compound": "C#CCNc1c2c(nc3ccccc13)CCCC2 [Compound 9]", "classification": "high"}
{"compound": "C#CCN(CC#C)CCCNc1c2c(nc3ccccc13)CCCC2.Cl.Cl [Compound 20]", "classification": "mid"}
{"compound": "C=CCN(CC=C)c1c2c(nc3ccccc13)CCCC2.Cl [Compound 1]", "classification": "high"}
{"compound": "C=CCNc1c2c(nc3cc(Cl)ccc13)CCCC2.Cl [Compound 3]", "classification": "mid"}
{"compound": "C=CCNc1c2c(nc3ccccc13)CCCC2.Cl [Compound 2]", "classification": "mid"}
{"compound": "COc1ccc2nc3c(c(N)c2c1)CCCC3 [Compound 7-MEOTA, 7-methoxytacrine, reference compound]", "classification": "low"}
{"compound": "C#CCNc1c2c(nc3ccc(Oc4ccccc4)cc13)CCCC2.Cl [Compound 15]", "classification": "low"}
{"compound": "C#CCN(CC#C)c1c2c(nc3ccccc13)CCCC2.Cl [Compound 8]", "classification": "high"}
{"compound": "C#CCN(CC#C)c1c2c(nc3ccc(OC)cc13)CCCC2.Cl [Compound 12]", "classification": "high"}
{"compound": "C#CCNCCCNc1c2c(nc3ccccc13)CCCC2.Cl.Cl [Compound 21]", "classification": "low"}
{"compound": "C#CCNc1ccnc2cc(Cl)ccc12.Cl [Compound 28]", "classification": "low"}
{"compound": "C=CCNc1c2c(nc3ccc(OC)cc13)CCCC2.Cl [Compound 5]", "classification": "high"}

* * *

- test-target: UniProt:P06276
- Sequence (P06276 29-602): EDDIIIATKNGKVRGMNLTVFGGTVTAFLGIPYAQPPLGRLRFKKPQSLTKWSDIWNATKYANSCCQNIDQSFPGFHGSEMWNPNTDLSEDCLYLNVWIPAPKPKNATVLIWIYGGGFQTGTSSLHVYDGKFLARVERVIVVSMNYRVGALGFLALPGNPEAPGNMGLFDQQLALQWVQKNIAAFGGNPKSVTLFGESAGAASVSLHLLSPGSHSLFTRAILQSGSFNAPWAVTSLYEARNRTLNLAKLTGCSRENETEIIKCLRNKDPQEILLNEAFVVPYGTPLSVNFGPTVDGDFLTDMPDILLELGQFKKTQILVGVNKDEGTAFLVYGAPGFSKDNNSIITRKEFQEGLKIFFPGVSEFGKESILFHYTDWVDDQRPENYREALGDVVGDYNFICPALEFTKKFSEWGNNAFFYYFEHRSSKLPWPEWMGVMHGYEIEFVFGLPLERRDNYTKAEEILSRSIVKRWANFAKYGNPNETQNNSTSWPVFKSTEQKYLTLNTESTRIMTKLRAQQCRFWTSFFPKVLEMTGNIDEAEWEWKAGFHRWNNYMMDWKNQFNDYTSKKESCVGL
- test-description: biochemical
- conditions-used: mean of at least three experiments; read-out: IC50 hBChE ± STD
pIC50: −log10 of the molar value.
pIC50 listing for selected compounds.

{"compound": "C#CCN(CC#C)c1c2c(nc3ccccc13)CCCC2.Cl [Compound 8]", "pIC50": 6.03}
{"compound": "C=CCNc1c2c(nc3ccc(OC)cc13)CCCC2.Cl [Compound 5]", "pIC50": 4.90}
{"compound": "C=CCNc1c2c(nc3ccc(Oc4ccccc4)cc13)CCCC2.Cl [Compound 7]", "pIC50": 5.56}
{"compound": "C#CCNc1c2c(nc3ccc(Oc4ccccc4)cc13)CCCC2.Cl [Compound 15]", "pIC50": 6.18}
{"compound": "C#CCNc1c2c(nc3ccccc13)CCCC2 [Compound 9]", "pIC50": 6.79}
{"compound": "C#CCN(CC#C)c1c2c(nc3cc(Cl)ccc13)CCCC2 [Compound 10]", "pIC50": 4.96}
{"compound": "C#CCNCCCNc1c2c(nc3ccccc13)CCCC2.Cl.Cl [Compound 21]", "pIC50": 7.03}
{"compound": "C#CCNc1c2c(nc3ccc(OC)cc13)CCCC2.Cl [Compound 13]", "pIC50": 5.43}
{"compound": "C#CCN(CC#C)CCCNc1c2c(nc3ccc(OC)cc13)CCCC2.Cl.Cl [Compound 24]", "pIC50": 5.98}
{"compound": "C=CCN(CC=C)c1c2c(nc3ccccc13)CCCC2.Cl [Compound 1]", "pIC50": 6.15}
{"compound": "C#CCN(CC#C)c1c2c(nc3ccc(OC)cc13)CCCC2.Cl [Compound 12]", "pIC50": 5.10}
{"compound": "C#CCN(CC#C)c1c2c(nc3ccc(Oc4ccccc4)cc13)CCCC2.Cl [Compound 14]", "pIC50": 4.91}
{"compound": "C#CCN(CC#C)CCCNc1c2c(nc3ccccc13)CCCC2.Cl.Cl [Compound 20]", "pIC50": 7.11}
{"compound": "C#CCNCCCNc1c2c(nc3ccc(Oc4ccccc4)cc13)CCCC2.Cl.Cl [Compound 26]", "pIC50": 5.97}
{"compound": "C=CCNc1c2c(nc3ccccc13)CCCC2.Cl [Compound 2]", "pIC50": 6.31}
{"compound": "C=CCNc1c2c(nc3cc(Cl)ccc13)CCCC2.Cl [Compound 3]", "pIC50": 5.49}
{"compound": "C=CCNc1ccnc2cc(Cl)ccc12.Cl [Compound 27]", "pIC50": 4.18}
{"compound": "C=CCN(CC=C)c1c2c(nc3ccc(OC)cc13)CCCC2.Cl [Compound 4]", "pIC50": 5.06}
{"compound": "C=CCN(CC=C)c1c2c(nc3ccc(Oc4ccccc4)cc13)CCCC2.Cl [Compound 6]", "pIC50": 4.88}
{"compound": "C#CCN(CC#C)CCCNc1c2c(nc3cc(Cl)ccc13)CCCC2.Cl.Cl [Compound 22]", "pIC50": 6.77}
